- target-or-system: wildtype hPFKFB2 (Homo sapiens, UniProt O60825)
- Sequence (O60825 whole entry): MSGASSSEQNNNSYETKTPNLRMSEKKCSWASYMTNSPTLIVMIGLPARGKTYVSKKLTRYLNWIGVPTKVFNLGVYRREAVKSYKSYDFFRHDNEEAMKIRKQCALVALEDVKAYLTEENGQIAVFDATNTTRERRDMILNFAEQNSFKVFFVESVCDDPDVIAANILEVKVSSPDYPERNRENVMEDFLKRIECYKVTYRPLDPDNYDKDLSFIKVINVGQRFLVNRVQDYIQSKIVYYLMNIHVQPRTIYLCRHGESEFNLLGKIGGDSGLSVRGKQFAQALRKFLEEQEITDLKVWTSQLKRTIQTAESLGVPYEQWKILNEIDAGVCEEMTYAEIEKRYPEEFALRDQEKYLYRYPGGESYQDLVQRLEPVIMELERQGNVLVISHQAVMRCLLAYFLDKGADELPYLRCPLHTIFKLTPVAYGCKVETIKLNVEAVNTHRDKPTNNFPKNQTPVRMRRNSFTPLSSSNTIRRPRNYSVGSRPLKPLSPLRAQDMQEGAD
- assay-procedure: 2-kinase inhibition assay
- Type: biochemical
- measurement-setup: Citrate Kis, wild-type; variable substrate F6P, fixed substrate ATP 250μM
parameter-measured: Ki (µM)
Respond numerically; units are µM and should not be typed.

## Input So what's the measured Ki for this one? O=C(O)CC(O)(CC(=O)O)C(=O)O [Citrate]
## Output 80.3

* * *

- target-or-system: wildtype hPFKFB2 (Homo sapiens)
- assay-procedure: 2-kinase inhibition assay
- Assay type: biochemical
- measurement-setup: Citrate Kis, wild-type; variable substrate ATP, fixed substrate F6P 250μM
parameter-measured: pKi
Notebook: values listed as pKi are -log10 of the concentration (mol/L).

## Input So what's the measured pKi for this one? O=C(O)CC(O)(CC(=O)O)C(=O)O [Citrate]
## Output 4.30
